Entries and their IC50 (CP), inhibition of classical pathway complement activation, ELISA values follow.
System: C3 purified from fresh human plasma (human, UniProt P01024 23-1663)
Sequence (P01024 23-1663): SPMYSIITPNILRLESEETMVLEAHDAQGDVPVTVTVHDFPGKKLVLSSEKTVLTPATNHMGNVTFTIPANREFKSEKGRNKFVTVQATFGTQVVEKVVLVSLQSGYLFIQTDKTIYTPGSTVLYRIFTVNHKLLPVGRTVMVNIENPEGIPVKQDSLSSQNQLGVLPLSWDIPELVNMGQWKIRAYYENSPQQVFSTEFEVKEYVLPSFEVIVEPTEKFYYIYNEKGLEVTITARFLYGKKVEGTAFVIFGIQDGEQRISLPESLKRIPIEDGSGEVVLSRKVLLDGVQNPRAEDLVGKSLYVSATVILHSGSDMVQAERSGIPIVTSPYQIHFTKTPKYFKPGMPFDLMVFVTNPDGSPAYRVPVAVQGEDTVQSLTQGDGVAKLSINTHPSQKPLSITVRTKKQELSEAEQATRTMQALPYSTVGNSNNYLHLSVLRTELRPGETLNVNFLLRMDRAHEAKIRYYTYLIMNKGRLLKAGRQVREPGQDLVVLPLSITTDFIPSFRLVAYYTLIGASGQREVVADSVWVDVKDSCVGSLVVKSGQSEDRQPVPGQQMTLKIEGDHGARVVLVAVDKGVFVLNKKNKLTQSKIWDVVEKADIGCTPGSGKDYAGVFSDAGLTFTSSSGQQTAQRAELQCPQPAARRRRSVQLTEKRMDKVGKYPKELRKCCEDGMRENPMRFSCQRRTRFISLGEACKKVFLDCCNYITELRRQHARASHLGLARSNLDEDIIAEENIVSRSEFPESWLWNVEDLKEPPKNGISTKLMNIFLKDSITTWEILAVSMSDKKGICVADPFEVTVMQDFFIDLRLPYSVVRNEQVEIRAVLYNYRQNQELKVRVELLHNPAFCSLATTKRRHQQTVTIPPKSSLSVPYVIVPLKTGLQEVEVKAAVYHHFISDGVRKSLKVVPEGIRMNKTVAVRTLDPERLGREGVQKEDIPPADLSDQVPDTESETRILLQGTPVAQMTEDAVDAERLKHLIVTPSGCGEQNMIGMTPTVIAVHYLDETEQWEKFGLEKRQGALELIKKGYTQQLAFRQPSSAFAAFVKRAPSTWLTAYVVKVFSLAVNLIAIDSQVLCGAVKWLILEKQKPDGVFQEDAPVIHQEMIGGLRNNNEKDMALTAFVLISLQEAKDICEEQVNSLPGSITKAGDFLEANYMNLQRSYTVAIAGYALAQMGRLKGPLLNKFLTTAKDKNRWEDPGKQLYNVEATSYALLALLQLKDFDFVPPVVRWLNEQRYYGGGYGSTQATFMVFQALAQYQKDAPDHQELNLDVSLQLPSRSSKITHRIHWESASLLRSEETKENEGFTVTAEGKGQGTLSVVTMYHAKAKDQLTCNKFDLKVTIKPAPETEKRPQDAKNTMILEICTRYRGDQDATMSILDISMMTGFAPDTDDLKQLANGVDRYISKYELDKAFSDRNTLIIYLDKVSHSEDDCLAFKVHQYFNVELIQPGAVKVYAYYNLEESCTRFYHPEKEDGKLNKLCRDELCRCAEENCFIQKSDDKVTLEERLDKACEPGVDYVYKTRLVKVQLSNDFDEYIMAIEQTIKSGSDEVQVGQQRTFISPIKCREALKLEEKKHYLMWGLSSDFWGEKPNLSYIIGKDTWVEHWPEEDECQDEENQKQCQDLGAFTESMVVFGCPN
Experiment: cell-based or functional assay
Bridge positions count the residues as written; N and C are the ends. Square brackets hold non-standard residues; d marks the D form. NMeH = CN[C@@H](Cc1c[nH]cn1)C(=O)O; Sar = CNCC(=O)O
Write the answer as a number in µM, unit excluded.

>>> recorded_number("Ac-ICVYQDW[Sar]AHRCT-NH2 (disulfide 2-12; SMILES CC[C@H](C)[C@H](NC(C)=O)C(=O)N[C@H]1CSSC[C@@H](C(=O)N[C@H](C(N)=O)[C@@H](C)O)NC(=O)[C@H](CCCNC(=N)N)NC(=O)[C@H](Cc2c[nH]cn2)NC(=O)[C@H](C)NC(=O)CN(C)C(=O)[C@H](Cc2c[nH]c3ccccc23)NC(=O)[C@H](CC(=O)O)NC(=O)[C@H](CCC(N)=O)NC(=O)[C@H](Cc2ccc(O)cc2)NC(=O)[C@H](C(C)C)NC1=O) [Ac-I[CVYQDW(NMe)GAHRC]T-NH2]")
1.43

Now for the binder whose IC50 (CP), inhibition of classical pathway complement activation, ELISA we want.
Entry Ac-ICVYQDWGA[NMeH]RCT-NH2 (disulfide 2-12; SMILES CC[C@H](C)[C@H](NC(C)=O)C(=O)N[C@H]1CSSC[C@@H](C(=O)N[C@H](C(N)=O)[C@@H](C)O)NC(=O)[C@H](CCCNC(=N)N)NC(=O)[C@H](Cc2c[nH]cn2)N(C)C(=O)[C@H](C)NC(=O)CNC(=O)[C@H](Cc2c[nH]c3ccccc23)NC(=O)[C@H](CC(=O)O)NC(=O)[C@H](CCC(N)=O)NC(=O)[C@H](Cc2ccc(O)cc2)NC(=O)[C@H](C(C)C)NC1=O) [Ac-I[CVYQDWGA(NMe)HRC]T-NH2] has what IC50 (CP), inhibition of classical pathway complement activation, ELISA?
94
